GFP response relative to DMSO overview
Assay: yeast TOR pathway reporter LAP4-GFP change – cell-based, cherry picks, flow cytometry, mother/daughter gates, confirmation (AID 2271);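 also: ratio of sample to DMSO plate mean so 100% equals DMSO level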
Conditions: S. cerevisiae LAP4-GFP strain, 3 h, measured here: mother cell gate response, at 10 µM, stronger effect = higher value, 100 means same as DMSO control

{"smiles_code": "CC(=O)c1ccc(CCCCCCCCCC(=O)O)s1", "GFP response relative to DMSO [%]": 113}
{"smiles_code": "CCOC(=O)C(Cc1cc(C(C)=O)ccc1OC(C)C)C(=O)OCC", "GFP response relative to DMSO [%]": 99.5}
{"smiles_code": "COCCN1C(=O)/C(=C/c2ccc(N3CCCC3)cc2C)SC1=S", "GFP response relative to DMSO [%]": 116}
{"smiles_code": "C[n+]1ccccc1/C=N/O", "GFP response relative to DMSO [%]": 101}
{"smiles_code": "Cc1ccc(OCCCCn2ccnc2C)c(C)c1", "GFP response relative to DMSO [%]": 100}
{"smiles_code": "CC(=O)O[C@]1(C(C)=O)CC[C@H]2[C@@H]3C[C@H](C)C4=CC(=O)CC[C@]4(C)[C@H]3CC[C@@]21C", "GFP response relative to DMSO [%]": 98.5}
{"smiles_code": "O=C(/C=C/c1ccc(Cl)c([N+](=O)[O-])c1)c1cccnc1", "GFP response relative to DMSO [%]": 215}
{"smiles_code": "Cc1cc(C)c(C(=O)Cn2cnc3cc([N+](=O)[O-])ccc3c2=O)cc1C", "GFP response relative to DMSO [%]": 91.3}
{"smiles_code": "C[C@]12CC[C@@H]3c4ccc(O)cc4C(=O)C[C@H]3[C@@H]1CC[C@@H]2O", "GFP response relative to DMSO [%]": 92.1}
{"smiles_code": "O=C(NC1CCCCC1)N1CCc2[nH]c3ccccc3c2C1", "GFP response relative to DMSO [%]": 98.3}
{"smiles_code": "O=C(/C=C/c1ccccc1)c1ccccc1", "GFP response relative to DMSO [%]": 94.6}

====

Experiment: cytosolic pH regulators acting via V-ATPase – S. cerevisiae, pHLuorin, HTS validation (AID 504600);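 also: plate controls were DMSO for no effect and reference compound for full effect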
Conditions: V-ATPase proton transport, at 10 µM, stronger effect = higher value
readout_label: response (%)

{"compound": "COc1ccccc1/C=C/C(=O)c1c2c(c(C)[nH]c1=O)CCCC2", "result_value": 17.4}
{"compound": "CC(=O)[C@@]1(O)CC[C@H]2[C@@H]3CCC4=CC(=O)CC[C@]4(C)[C@H]3[C@@H](O)C[C@@]21C", "result_value": 4.15}
{"compound": "CN(C)CCOC(=O)C(c1ccccc1)C1(O)CCCC1 (stereo not drawn)", "result_value": 0.51}
{"compound": "O=C1CCc2cc(OCCCCc3nnnn3C3CCCCC3)ccc2N1", "result_value": -1.32}
{"compound": "CC(CCCC(C)(C)O)NC(=O)c1ccc(OC2CCN(C(=O)C3CC3)CC2)cc1 (stereo not drawn)", "result_value": -0.73}
{"compound": "COc1cccc(OCc2nnc(-c3cccs3)o2)c1", "result_value": -2.54}
{"compound": "C[C@H]1C[C@@H]2[C@H]([C@@H](O)C[C@@]3(C)[C@H]2CC[C@]3(O)C(=O)CO)[C@@]2(C)C=CC(=O)C=C12", "result_value": 0.24}
{"compound": "Cc1cccc2c(=O)n3c(nc12)CCCCC3", "result_value": 0.7}
{"compound": "NC(=O)N1c2ccccc2CC(=O)c2ccccc21", "result_value": -2.65}
{"compound": "CCOc1ccc(N2C(=O)CNC2=S)cc1", "result_value": -2.61}
{"compound": "CCc1oc2ccccc2c1C(=O)c1cc(Br)c(O)c(Br)c1", "result_value": 15.2}
{"compound": "NC(=O)c1cnccn1", "result_value": 11.1}
{"compound": "Cc1ccc(Cl)c(OCCCN(C)Cc2ccccc2)c1", "result_value": 0.72}
{"compound": "CCOC(=O)n1c(=O)oc2ccccc21", "result_value": 10.2}
{"compound": "CN(C)C(=O)Oc1ccc[n+](C)c1", "result_value": -1.45}
{"compound": "OC(CCCN1CCC(O)(c2ccc(Cl)cc2)CC1)c1ccc(F)cc1 (stereo not drawn)", "result_value": -0.08}
{"compound": "CC(=O)c1c(C)c(C)c2n1CCn1c(C)ccc1-2", "result_value": -6.83}
{"compound": "CC(C)(Sc1cc(C(C)(C)C)c(O)c(C(C)(C)C)c1)Sc1cc(C(C)(C)C)c(O)c(C(C)(C)C)c1", "result_value": -3.38}
{"compound": "CCc1nc2ccccc2n1Cc1ccc(OC)c(OC)c1", "result_value": 2.99}
{"compound": "O=C(OCCNC(=O)c1ccc2ccccc2n1)c1ccc(F)cc1", "result_value": 1.13}
{"compound": "CN(C)CCN(Cc1ccc(Cl)cc1)c1ccccn1", "result_value": -5.25}
{"compound": "C[C@]12CC[C@H]3[C@@H](CCC4=CC(=O)CC[C@@]43C)[C@@H]1CC[C@@H]2C(=O)CO", "result_value": -4.52}
{"compound": "C1CCC(C(CC2CCCCN2)C2CCCCC2)CC1 (stereo not drawn)", "result_value": 2.51}

====

Below, each entry is listed alongside its reported inhibition.
Biological target: AP-2 complex subunit beta (Homo sapiens) (UniProt P63010)
Sequence (P63010 whole entry, looked up, one chain of several): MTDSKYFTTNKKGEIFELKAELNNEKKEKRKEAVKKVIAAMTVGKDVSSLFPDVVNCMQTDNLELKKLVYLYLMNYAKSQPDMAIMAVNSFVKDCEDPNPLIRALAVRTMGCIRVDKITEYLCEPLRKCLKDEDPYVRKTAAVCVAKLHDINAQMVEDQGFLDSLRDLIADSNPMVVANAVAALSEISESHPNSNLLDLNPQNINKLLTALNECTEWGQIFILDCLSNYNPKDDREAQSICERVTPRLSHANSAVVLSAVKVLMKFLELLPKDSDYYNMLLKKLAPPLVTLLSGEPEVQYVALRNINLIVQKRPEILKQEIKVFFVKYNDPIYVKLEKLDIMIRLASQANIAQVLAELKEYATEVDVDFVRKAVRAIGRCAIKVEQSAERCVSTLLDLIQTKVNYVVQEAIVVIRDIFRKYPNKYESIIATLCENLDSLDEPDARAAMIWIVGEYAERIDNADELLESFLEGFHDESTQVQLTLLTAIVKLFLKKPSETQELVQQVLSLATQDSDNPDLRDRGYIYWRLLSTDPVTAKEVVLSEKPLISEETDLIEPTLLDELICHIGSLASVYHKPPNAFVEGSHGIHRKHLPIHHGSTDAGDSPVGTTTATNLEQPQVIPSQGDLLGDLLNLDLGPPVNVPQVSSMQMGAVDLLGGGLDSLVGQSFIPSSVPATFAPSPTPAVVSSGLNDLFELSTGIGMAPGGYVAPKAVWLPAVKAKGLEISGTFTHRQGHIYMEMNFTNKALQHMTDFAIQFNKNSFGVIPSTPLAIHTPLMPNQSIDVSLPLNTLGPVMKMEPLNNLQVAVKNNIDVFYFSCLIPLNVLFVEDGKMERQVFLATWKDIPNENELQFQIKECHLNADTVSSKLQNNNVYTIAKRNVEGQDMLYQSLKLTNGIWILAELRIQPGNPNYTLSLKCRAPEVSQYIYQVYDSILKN
Experiment: beta-arrestin/AP2 interaction blockers – biochemical, validation set, GST-AP2 beads, flow cytometry, pilot screen (AID 504541);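 also: AP2 carries R879A mutation and is captured from E. coli lysate; bead-bound FITC arrestin peptide fluorescence measuring arrestin peptide binding to AP2; 0% = DMSO wells and 100% = excess unlabeled arrestin peptide control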
Conditions: FITC arrestin peptide, at 10 µM, stronger effect = higher value, AP2 beta2 appendage fragment, R879A mutant

{"compound": "COc1ccc(C(=O)COc2ccc(F)cc2)c(O)c1", "inhibition, %": 1.75}
{"compound": "Cc1ccc2nc(N=C(N)N)nc(C)c2c1", "inhibition, %": 0.05}
{"compound": "Cc1nc(NC(CC(C)C)C(=O)O)c2nc(C)oc2n1 (stereo unspecified)", "inhibition, %": 4.51}
{"compound": "CC(C)CN1CCN(Cc2cccn2-c2ccccn2)CC1CCO (stereo unspecified)", "inhibition, %": -9.17}
{"compound": "CN(C(=O)C(Cl)Cl)c1ccc(OC(=O)c2ccco2)cc1", "inhibition, %": 15.3}
{"compound": "COc1cc(CO)ccc1OCc1nnnn1-c1ccc(C)cc1", "inhibition, %": -5.08}
{"compound": "C[C@]12C[C@H](O)[C@H]3[C@@H](CCC4=CC(=O)CC[C@@]43C)[C@@H]1CC[C@@H]2C(=O)CO", "inhibition, %": -0.36}
{"compound": "NC(=O)c1ccccc1O", "inhibition, %": 33.5}
{"compound": "COc1ccc2[nH]c(=O)c(CN(C(=O)c3ccco3)C(C)C)cc2c1", "inhibition, %": -1.83}
{"compound": "CCCNC(C)C(=O)Nc1ccccc1C (stereo unspecified)", "inhibition, %": -0.33}
{"compound": "COc1ccc2c(c1OC)C(=O)OC2C1c2c(cc3c(c2OC)OCO3)CCN1C (stereo unspecified)", "inhibition, %": -5.89}
{"compound": "COc1ccc(CNC(=O)C2CCCN2C)cc1OC (stereo unspecified)", "inhibition, %": -3.62}
{"compound": "C[N+](C)(C)CCCCCCCCCC[N+](C)(C)C", "inhibition, %": -6.99}
{"compound": "CC(=O)N(CCC(Cc1ccccc1)c1ccco1)Cc1ccco1 (stereo unspecified)", "inhibition, %": 13.6}
{"compound": "COc1cc2c3c(c1)C(C)CC(C)(C)N3C(=O)C2=O (stereo unspecified)", "inhibition, %": 0.2}
{"compound": "O=C(NC(=S)Nc1ccc2c(c1)OCCO2)c1ccccc1F", "inhibition, %": 7.78}
{"compound": "Cc1ccccc1NC(=O)c1c(C)cc(=O)oc1C", "inhibition, %": -11.4}
{"compound": "CC(=O)Oc1cc2oc(=O)cc(C)c2cc1OC(C)=O", "inhibition, %": 3.54}
{"compound": "CC(C)CC(NC(=O)CNC(=O)C1O[C@@H]2OC(C)(C)O[C@@H]2[C@H]2OC(C)(C)O[C@@H]12)C(=O)O (stereo partly specified)", "inhibition, %": 9.78}
{"compound": "CC1(C)CC(NC(=O)C23CCC(C)(C(=O)C2=O)C3(C)C)CC(C)(C)N1 (stereo unspecified)", "inhibition, %": -0.24}
{"compound": "Cc1cc(OC(=O)CNC(=O)OC(C)(C)C)c2c(C)cc(=O)oc2c1", "inhibition, %": 6.94}
{"compound": "COc1ccc(C(=O)c2oc3ccc(Br)cc3c2NC(C)=O)cc1", "inhibition, %": 3.03}
{"compound": "CC(C)N(C(=O)Cc1ccccc1[N+](=O)[O-])C(C)C", "inhibition, %": -8.88}
{"compound": "CC(=O)N1CCN(c2ccc(NC(=O)/C=C/c3ccccc3)cc2)CC1", "inhibition, %": -6.59}
{"compound": "CCCCCCCC(=O)OCC(=O)[C@@]1(O)CC[C@H]2[C@@H]3CCC4=CC(=O)CC[C@]4(C)[C@H]3[C@@H](O)C[C@@]21C", "inhibition, %": -9.35}
{"compound": "CCCC(CCC)C(=O)OC1C[C@H]2CC[C@@H](C1)[N+]2(C)C (stereo partly specified)", "inhibition, %": -1.17}
{"compound": "COc1ccc(CNCCC2(C(C)C)CCOC(C)(C)C2)cc1 (stereo unspecified)", "inhibition, %": -2.2}
{"compound": "CC(C)(C)OC(=O)N1CC(O)CC1C(=O)OCC(=O)c1ccc(Cl)cc1 (stereo unspecified)", "inhibition, %": -13.3}
{"compound": "Nc1ccc(S(=O)(=O)NC(=O)c2ccccc2)cc1", "inhibition, %": -15.4}
{"compound": "Cc1cccc(OCC(=O)Nc2ccc(C(=O)NCC(C)C)cc2)c1", "inhibition, %": -3.7}
{"compound": "COc1ccc(C2=CC(=O)C=CC2=O)cc1", "inhibition, %": 64.5}
{"compound": "Cc1ccc(C2CC(=O)C(C=NCCN3CCN(CC(=O)Nc4cc(C)cc(C)c4)CC3)=C(O)C2)cc1 (stereo unspecified)", "inhibition, %": -1.73}
{"compound": "COc1cccc(=O)c2c(C)n(CC(=O)c3ccccc3)c(C)c12", "inhibition, %": -9.87}
{"compound": "Cc1ccc(C(=O)NCCNC(=O)c2ccccc2)cc1", "inhibition, %": -2.62}
{"compound": "CC1(C)CC(=O)c2cn3c(nc2C1)nc1ccccc13", "inhibition, %": 17}
{"compound": "COC1CCN(C(=O)c2ccc(OC3CCN(Cc4ccccn4)CC3)cc2)CC1", "inhibition, %": 26.3}
{"compound": "COc1ccc(-c2cc(=Nc3ccc(C)cc3)c3ccccc3o2)cc1", "inhibition, %": -0.02}
{"compound": "Cc1cccc(Oc2coc3cc(OC(=O)c4cncc(Br)c4)ccc3c2=O)c1", "inhibition, %": -11.9}
{"compound": "CCOCC(=O)Nc1nc2ccccc2s1", "inhibition, %": -1.47}
{"compound": "COC(=O)[C@@H](N)CS", "inhibition, %": -20.1}
{"compound": "O=C(O)[C@H](Cc1ccccc1)NC(=O)N1CCC(Cc2ccccc2)CC1", "inhibition, %": 4.86}
{"compound": "CNCCCC1c2ccccc2C=Cc2ccccc21", "inhibition, %": -2.69}
{"compound": "Cc1ccc(C(=O)COC(=O)c2cnccn2)cc1[N+](=O)[O-]", "inhibition, %": -6.78}
{"compound": "COc1cc(CNc2nnnn2C)ccc1OCc1ccc(F)cc1Cl", "inhibition, %": 16.9}
{"compound": "CC(=O)CSc1ncnc2c1cnn2-c1ccccc1", "inhibition, %": 14.5}
{"compound": "O=C1CN(O)C=C2N=c3ccccc3=C2N1c1ccc([N+](=O)[O-])cc1", "inhibition, %": -5.08}

From: PubChem BioAssay
